- System: HT-29 human colon cells
- assay details: Tumor cytotoxicity assay, resazurin fluorescence, 48 h (Example 6)
- Assay type: cell-based
- test parameters: in words

given smiles: COc1cc(/C=c2\[nH]c(=O)/c(=C/c3nc[nH]c3C(C)(C)C)[nH]c2=O)cc(OC)c1OC
test target: HT-29 human colon cells
cytotoxic activity against HT-29 cells: also showed activity
//
given smiles: COc1cc(OC)c(/C=c2\[nH]c(=O)/c(=C/c3nc[nH]c3C(C)(C)C)[nH]c2=O)c(OC)c1
test target: HT-29 human colon cells
cytotoxic activity against HT-29 cells: also showed activity
//
given smiles: COc1ccc(/C=c2\[nH]c(=O)/c(=C/c3nc[nH]c3C(C)(C)C)[nH]c2=O)c(OC)c1OC
test target: HT-29 human colon cells
cytotoxic activity against HT-29 cells: also showed activity

---

- Tested on: HT-29 cells
- assay details: Additional cytotoxicity assays, resazurin (Table 3.1); as to % cytotox Mean: test concentration or dose not given here
- Assay type: cell-based, human
- test parameters: Table 3.1

compound: C=CC(C)(C)c1[nH]cnc1/C=C1\N=C(OC)C(Cc2ccccc2)N=C1OC (racemic)
% cytotox Mean [%]: 4
//
compound: CC(C)(C)c1[nH]cnc1/C=c1\[nH]c(=O)/c(=C/c2cc(Cl)ccc2[N+](=O)[O-])[nH]c1=O
% cytotox Mean [%]: 86
//
compound: CC(C)(C)c1ocnc1/C=c1\[nH]c(=O)/c(=C/c2ccccc2)[nH]c1=O
% cytotox Mean [%]: 88

---

- test target: CDK1/Cyclin B (human) (Homo sapiens, UniProt P06493)
- Sequence (P06493 whole entry): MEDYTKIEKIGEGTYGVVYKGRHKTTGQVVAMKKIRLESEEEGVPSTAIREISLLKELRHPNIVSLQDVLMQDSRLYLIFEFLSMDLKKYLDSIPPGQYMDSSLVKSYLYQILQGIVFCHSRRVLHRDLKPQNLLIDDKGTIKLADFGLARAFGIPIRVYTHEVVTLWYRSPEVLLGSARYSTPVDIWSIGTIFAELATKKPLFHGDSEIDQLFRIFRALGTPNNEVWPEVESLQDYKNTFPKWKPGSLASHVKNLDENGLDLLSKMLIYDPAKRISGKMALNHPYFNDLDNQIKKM
- Sequence (P14635 whole entry partner): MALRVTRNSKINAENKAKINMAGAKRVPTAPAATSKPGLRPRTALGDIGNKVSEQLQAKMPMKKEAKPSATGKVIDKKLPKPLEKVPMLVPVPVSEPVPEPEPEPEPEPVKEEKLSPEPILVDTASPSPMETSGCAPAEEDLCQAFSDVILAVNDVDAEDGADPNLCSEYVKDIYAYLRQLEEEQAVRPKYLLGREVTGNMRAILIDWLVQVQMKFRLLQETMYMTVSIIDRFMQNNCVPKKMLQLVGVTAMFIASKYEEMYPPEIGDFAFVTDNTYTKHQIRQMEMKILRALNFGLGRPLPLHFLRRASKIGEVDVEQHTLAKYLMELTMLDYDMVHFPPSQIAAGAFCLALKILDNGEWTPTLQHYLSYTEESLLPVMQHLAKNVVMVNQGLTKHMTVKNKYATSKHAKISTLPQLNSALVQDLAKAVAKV
- assay details: biochemical
pIC50: −log10 of the molar value.

compound: CC(C)(C)c1[nH]cnc1/C=c1\[nH]c(=O)/c(=C/c2ccccc2)[nH]c1=O [KPU-2, tBu-dehydro-PLH]
pIC50: 5.00

---

- Tested on: HT-29 human colon cells
- assay details: Tumor cytotoxicity assay, resazurin fluorescence, 48 h (Example 6)
- Format: cell-based
- test parameters: Table 6, proliferation of HT-29 cells; read-out: EC50
pEC50: −log10 of the molar value.

compound: C=CC(C)(C)c1[nH]cnc1/C=c1\[nH]c(=O)/c(=C/c2ccccc2)[nH]c1=O [KPU-1, Dehydrophenylahistin]
pEC50: 7.32

---

- Tested on: Jurkat cells
- assay details: cells
- Type: cell-based
- test parameters: Homo sapiens, Jurkat, read-out: Cytotoxicity Potency IC50
pIC50: −log10 of the molar value.

molecule: O=C1c2c(O)ccc(O)c2C(=O)c2c(NCCNCCO)ccc(NCCNCCO)c21 [mitoxantrone, Mitoxantrone, reference compound]
pIC50: 7.39

---

Each entry below carries its recorded melting point.
quantity: melting point

given smiles: CC(C)(C)c1ocnc1/C=c1\[nH]c(=O)/c(=C/c2cccc(Oc3ccccc3)c2)[nH]c1=O
quantity: melting point
reported: 171 to 173 °C
--
given smiles: COc1cc(/C=c2\[nH]c(=O)/c(=C/c3ncoc3C(C)(C)C)[nH]c2=O)cc(OC)c1
quantity: melting point
reported: 171 to 173 °C
--
given smiles: CC(C)(C)c1ocnc1/C=c1\[nH]c(=O)/c(=C/c2cccc(Cl)c2)[nH]c1=O
quantity: melting point
reported: 171 to 173 °C
--
given smiles: CC(C)(C)c1ocnc1/C=c1\[nH]c(=O)/c(=C/c2ccccn2)[nH]c1=O
quantity: melting point
reported: 230 to 232 °C
--
given smiles: CC(C)(C)c1ocnc1/C=c1\[nH]c(=O)/c(=C/c2c(F)ccc(F)c2F)[nH]c1=O
quantity: melting point
reported: 212 to 214 °C
--
given smiles: CC(C)(C)c1ocnc1/C=c1\[nH]c(=O)/c(=C/c2ccsc2)[nH]c1=O
quantity: melting point
reported: 155 to 157 °C
--
given smiles: CC(C)(C)c1ocnc1/C=c1\[nH]c(=O)/c(=C/c2ccc(-c3cccs3)s2)[nH]c1=O
quantity: melting point
reported: 212 to 214 °C
--
given smiles: CC(C)(C)c1ocnc1/C=c1\[nH]c(=O)/c(=C/c2cc(Cl)cc(Cl)c2)[nH]c1=O
quantity: melting point
reported: 202 to 204 °C
--
given smiles: Cc1ccccc1/C=c1\[nH]c(=O)/c(=C/c2ncoc2C(C)(C)C)[nH]c1=O
quantity: melting point
reported: 177 to 179 °C
--
given smiles: CCOc1cccc(/C=c2\[nH]c(=O)/c(=C/c3ncoc3C(C)(C)C)[nH]c2=O)c1
quantity: melting point
reported: 124 to 126 °C
--
given smiles: CC(C)(C)c1ocnc1/C=c1\[nH]c(=O)/c(=C/c2ccnc3ccccc23)[nH]c1=O
quantity: melting point
reported: 106 to 108 °C
--
given smiles: CC(C)(C)c1ocnc1/C=c1\[nH]c(=O)/c(=C/c2cn(S(=O)(=O)c3ccccc3)c3ccccc23)[nH]c1=O
quantity: melting point
reported: 133 to 135 °C
--
given smiles: CC(C)(C)c1ocnc1/C=c1\[nH]c(=O)/c(=C/c2ccccc2[N+](=O)[O-])[nH]c1=O
quantity: melting point
reported: 149 to 151 °C
--
given smiles: CC(C)(C)c1ocnc1/C=c1\[nH]c(=O)/c(=C/c2cccc([N+](=O)[O-])c2)[nH]c1=O
quantity: melting point
reported: 225 to 227 °C
--
given smiles: CC(C)(C)c1ocnc1/C=c1\[nH]c(=O)/c(=C/c2cc3ccccc3n2S(=O)(=O)c2ccccc2)[nH]c1=O
quantity: melting point
reported: 145 to 147 °C
--
given smiles: CC(C)(C)c1ocnc1/C=c1\[nH]c(=O)/c(=C/CCc2ccccc2)[nH]c1=O
quantity: melting point
reported: 180 to 182 °C
--
given smiles: CC(C)(C)c1ocnc1/C=c1\[nH]c(=O)/c(=C/c2cccc(F)c2)[nH]c1=O
quantity: melting point
reported: 143 to 145 °C
--
given smiles: CC(C)(C)c1ocnc1/C=c1\[nH]c(=O)/c(=C/c2cccc(Br)c2)[nH]c1=O
quantity: melting point
reported: 170 to 172 °C

---

Each entry below lists one item and its recorded EC50 value.
- Test system: HT-29 cells
- assay details: Additional cytotoxicity assays, resazurin (Table 3.1)
- Type: cell-based, human
- test parameters: Homo sapiens, HT-29; Table 3.1; read-out: EC50 (M) Mean

compound: CC(C)(C)c1ccc(O)c(/C=c2\[nH]c(=O)/c(=C/c3nc[nH]c3C(C)(C)C)[nH]c2=O)c1
test target: HT-29 cells
limit sign: =
EC50 (M): 8.53e-06

compound: Cc1cccc(/C=c2\[nH]c(=O)/c(=C/c3nc[nH]c3C(C)(C)C)[nH]c2=O)n1
test target: HT-29 cells
limit sign: >
EC50 (M): 2e-05

compound: Cc1[nH]cnc1/C=c1\[nH]c(=O)/c(=C/c2nc[nH]c2C(C)(C)C)[nH]c1=O
test target: HT-29 cells
limit sign: =
EC50 (M): 2.35e-06

compound: COc1ccc(F)c(/C=c2\[nH]c(=O)/c(=C/c3nc[nH]c3C(C)(C)C)[nH]c2=O)c1
test target: HT-29 cells
limit sign: =
EC50 (M): 2.03e-08

compound: COc1ccc(O)c(/C=c2\[nH]c(=O)/c(=C/c3nc[nH]c3C(C)(C)C)[nH]c2=O)c1
test target: HT-29 cells
limit sign: >
EC50 (M): 2e-05

compound: COc1cccc(/C=c2\[nH]c(=O)/c(=C/c3nc[nH]c3C(C)(C)C)[nH]c2=O)c1N
test target: HT-29 cells
limit sign: =
EC50 (M): 3.49e-07

compound: CC(C)(C)c1[nH]cnc1/C=C1\NC(=O)[C@H](Cc2ccccc2)NC1=O [Compound 2460, (−)-tBu-PLH]
test target: HT-29 cells
limit sign: =
EC50 (M): 2.55e-07

compound: CC(C)(C)c1[nH]cnc1/C=c1\[nH]c(=O)/c(=C/c2cc(Br)ccc2O)[nH]c1=O
test target: HT-29 cells
limit sign: >
EC50 (M): 2e-05

---

- Tested on: HT-29 cells
- assay details: Additional cytotoxicity assays, resazurin (Table 3.1); as to % cytotox Mean: test concentration or dose not given here
- Format: cell-based, human
- test parameters: Table 3.1
quantity: % cytotox Mean

molecule: CC(C)(C)c1[nH]cnc1/C=c1\[nH]c(=O)/c(=C/c2cc(Cl)ccc2O)[nH]c1=O [Compound 2410, tBu-delta-PLH-2-OH-5-Cl]
reported: 37%

molecule: CCc1ccc(/C=c2\[nH]c(=O)/c(=C/c3nc[nH]c3C(C)(C)C)[nH]c2=O)o1 [Compound 2426, tBu-delta-PLH-5-Et-2-furyl]
reported: 86%

molecule: CC(C)(C)c1[nH]cnc1/C=c1\[nH]c(=O)/c(=C/c2sccc2B(O)O)[nH]c1=O [Compound 2459, tBu-delta-PLH-3-B(OH)2-2-thienyl]
reported: 88%

molecule: CC(C)(C)c1[nH]cnc1/C=c1\[nH]c(=O)/c(=C/c2cc(Br)ccc2O)[nH]c1=O [Compound 2407, tBu-delta-PLH-2-OH-5-Br]
reported: 13%

molecule: CC(C)(C)c1[nH]cnc1/C=c1\[nH]c(=O)/c(=C/c2cc([N+](=O)[O-])ccc2Cl)[nH]c1=O [Compound 2371, tBu-delta-PLH-2-Cl-5-NO2]
reported: 86%

molecule: CC(C)(C)c1[nH]cnc1/C=c1\[nH]c(=O)/c(=C/c2ccc(Cl)s2)[nH]c1=O [Compound 2412, tBu-delta-PLH-5-Cl-2-thionyl]
reported: 85%

molecule: COc1cc(/C=c2\[nH]c(=O)/c(=C/c3nc[nH]c3C(C)(C)C)[nH]c2=O)cc(OC)c1 [Compound 2367, tBu-delta-3,5-diOMe]
reported: 87%

molecule: COc1ccc(/C=c2\[nH]c(=O)/c(=C/c3nc[nH]c3C(C)(C)C)[nH]c2=O)cc1O [Compound 2408, tBu-delta-PLH-3-OH-4-OMe]
reported: 66%

molecule: CC(C)(C)c1[nH]cnc1/C=c1\[nH]c(=O)/c(=C/c2cccc(N)c2)[nH]c1=O [Compound 2458, tBu-delta-PLH-m-NH2]
reported: 87%

molecule: Cc1cccc(/C=c2\[nH]c(=O)/c(=C/c3nc[nH]c3C(C)(C)C)[nH]c2=O)n1 [Compound 2384, tBu-delta-PLH-3-Me-2-pyridyl]
reported: 37%

molecule: CSc1ccccc1/C=c1\[nH]c(=O)/c(=C/c2nc[nH]c2C(C)(C)C)[nH]c1=O [Compound 2429, tBu-delta-PLH-2-(Methylthio)]
reported: 87%

molecule: CC(C)(C)c1ccc(O)c(/C=c2\[nH]c(=O)/c(=C/c3nc[nH]c3C(C)(C)C)[nH]c2=O)c1 [Compound 2433, tBu-delta-PLH-2-OH-5-tBU]
reported: 80%

Source: patent US8129527B2
